# Tested on: OVCAR3 cells
# Assay text: Cell Proliferation Activity Test (CyQUANT Direct), OVCAR3
# Type: cell-based
# Condition details: compound 0-10 µM, 3 days, 0.2% DMSO, CyQUANT fluorescence, read-out: OVCAR-3 _IC50_nM
pIC50: −log10 of the molar value.
Measured metric: pIC50

| Compound | pIC50 |
| --- | --- |
| Cc1cc2nc(n1)N1CCCC(CCCC3CCN(CC3)c3cc(NS(=O)(=O)CCO)ccc3C(=O)N2)C1 (stereo not shown) [Example 3B] | 7.44 |

P: Cc1cc2nc(n1)N1CCC(F)(F)C(CCCC3CCN(CC3)c3cc(NS(=O)(=O)CCO)ccc3C(=O)N2)C1 (stereo not shown) [Example 23B]
Q: Cc1cc2nc(n1)N1CCCC(CCCC3CCN(CC3)c3cc(NS(=O)(=O)CCO)ccc3C(=O)N2)C1 (stereo not shown) [Example 3]
Pick one: P or Q . Which one has the lower reported pIC50? Return value: the label identifying the chosen record.
Q
(Q: 7.12, P: 7.55)
